Data origin: PubChem BioAssay AID1159580

Run Description: chemical genetic growth profiling, strain panel (AID 1159580);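 also: tested at 20 µM; growth read once vehicle control cultures reached saturation at 30 °C; 1 = growth at the plate median or of vehicle wells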
Test Parameters: S. cerevisiae deletion strains, growth OD, locus YDR101C, strain arx1, hits give low values
The campaign covered roughly 5,500 compounds. About 2,000 (36%) were called active. Roughly 18% stayed inconclusive and do not appear here. The list shows a part of the results.
Measurement Type: normalized growth

Give reported normalized growth value for `C=C(C)[C@H]1COc2cc3oc(=O)ccc3cc2O1` 0.724 (active)

Read off the recorded normalized growth for C[C@]12CCC3c4ccc(O)cc4CCC3C1C[C@@H](O)[C@@H]2O (stereo partly specified) 0.945 (inactive)

Return normalized growth (reported value) for this compound: COc1ccc2c(c1)CCC1C2CC[C@@]2(C)C1CC[C@@H]2O (stereo partly specified) 0.811 (active)

Answer with reported normalized growth of O=C(Cc1cccs1)NC1C(=O)N2C(C(=O)[O-])=C(C[n+]3ccccc3)CSC12 (stereo unspecified) 1.01 (inactive)

Note down normalized growth recorded for CC(C)C1COc2cc3oc(=O)ccc3cc2O1 (stereo unspecified) 0.714 (active)

Quickly give me recorded normalized growth for CC12CCC3c4ccc(OCc5ccccc5)cc4CCC3C1C[C@@H](O)[C@@H]2O (stereo partly specified) 0.127 (active)

###

Run Description: chemical genetic growth profiling, strain panel (AID 1159580)
Test Parameters: S. cerevisiae deletion strains, growth OD, locus YDR388W, hits give low values
The campaign covered roughly 5,500 compounds. About 2,000 (36%) were called active. Another 18% or so got no clear call; they are omitted. The list shows a part of the results.
Measurement Type: normalized growth

Compound	Reported
C[C@@H]1CC[C@@]2(OC1)OC1CC3C4CC=C5C[C@@H](O)CC[C@]5(C)C4CC[C@]3(C)C1[C@@H]2C (stereo partly specified)	0.976 (inactive)
C=C(C)[C@H]1COc2cc3oc(=O)ccc3cc2O1	0.515 (active)
CCCC(C)(COC(N)=O)COC(=O)NC(C)C (stereo unspecified)	0.979 (inactive)

Please supply the value of reported normalized growth for the item `CC(C)(O)[C@@H]1Cc2cc3ccc(=O)oc3cc2O1` 1.01 (inactive)

Return reported normalized growth. Input compound: Cc1ccccc1OCC(O)CO (stereo unspecified) 0.987 (inactive)

Give normalized growth for the following compound: `COc1cccc2c(C)cc(=O)[nH]c12` 0.929 (inactive)

Query normalized growth for `CCC/C=C1\OC(=O)C2=C1CCC=C2` 0.978 (inactive)

Input `CCOCN(C(=O)CCl)c1c(C)cccc1CC` , output reported normalized growth. 0.978 (inactive)

Query normalized growth for CC(C)C1COc2cc3oc(=O)ccc3cc2O1 (stereo unspecified) 0.241 (active)

Tell me normalized growth reported for `Cc1[nH]ccc2c1[nH]c1cc(=O)ccc12` 0.988 (inactive)

Report measured normalized growth; entry is `CN1C[C@H](C(=O)N[C@]2(C)O[C@@]3(O)[C@@H]4CCCN4C(=O)[C@H](Cc4ccccc4)N3C2=O)C[C@@H]2c3cccc4[nH]cc(c34)C[C@H]21` 0.981 (inactive)

###

Run Description: chemical genetic growth profiling, strain panel (AID 1159580)
Test Parameters: S. cerevisiae deletion strains, growth OD, locus YJR075W, strain HOC1, hits give low values
Out of some 5,500 compounds screened, about 2,000 (36%) were called active. Another 18% or so got no clear call; they are omitted. The list shows a part of the results.
Kindly apply the following: label 1 if normalized growth is less than 1, label 0 in every other case.

Compound	Assigned Class
CC/C(=C(/CC)c1ccc(O)cc1)c1ccc(O)cc1	label 1
O=C1NC(=O)/C(=C/c2ccc(OS(=O)(=O)c3ccc(Cl)cc3)cc2)N1	label 0
O=C(O[C@@H]1Cc2c(O)cc(O)cc2O[C@@H]1c1cc(O)c(=O)c2c(O)c(O)cc([C@H]3Oc4cc(O)cc(O)c4C[C@H]3OC(=O)c3cc(O)c(O)c(O)c3)c2c1)c1cc(O)c(O)c(O)c1	label 1
CCOC(=O)C1C(c2cccnc2)C(C(=O)OCC)C(O)(C(F)(F)F)NC1(O)C(F)(F)F (configuration not stated)	label 0
O=C(OC1Cc2c(O)cc(O)cc2OC1c1cc(=O)c(O)c2c(O)c(O)cc(C3Oc4cc(O)cc(O)c4CC3O)c2c1)c1cc(O)c(O)c(O)c1 (configuration not stated)	label 1

A record lists C[C@@H]1CC[C@@]2(NC1)O[C@H]1C[C@H]3C4CC=C5C[C@@H](O)CC[C@]5(C)C4CC[C@]3(C)C1[C@@H]2C (some centres not stated) . Is its normalized growth below 1? label 1

Lab note: confirm whether the reported normalized growth for this compound is below 1, equality not counting. compound: `Cc1ccc(/C=C2\CCc3ccccc3C2=O)o1` label 1

###

Run Description: chemical genetic growth profiling, strain panel (AID 1159580);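 also: tested at 20 µM; growth read once vehicle control cultures reached saturation at 30 °C; 1 = growth at the plate median or of vehicle wells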
Test Parameters: S. cerevisiae deletion strains, growth OD, locus YER015W, strain faa2, hits give low values
About 2,000 (36%) of roughly 5,500 compounds were called active. Not shown: some 18% with an inconclusive outcome. The list shows a part of the results.
Measurement Type: normalized growth
Write the value as a bare number.

Solved entries:
Compound	Measurement Type	Reported
N#Cc1nn(-c2c(Cl)cc(C(F)(F)F)cc2Cl)c(N)c1S(=O)C(F)(F)F (stereo not given)	normalized growth	0.955
CCC1OC(=O)[C@H](C)C(=O)[C@H](C)[C@@H](OC2O[C@H](C)C[C@H](N(C)C)[C@H]2O)[C@](C)(OC)C2(CCCn3cnc(-c4cccnc4)c3)C[C@@H](C)C(=O)[C@H](C)[C@H]3N(C2)C(=O)O[C@]13C (stereo not given in full)	normalized growth	0.987
CN1C[C@H](C(=O)N[C@]2(C)O[C@@]3(O)[C@@H]4CCCN4C(=O)[C@H](Cc4ccccc4)N3C2=O)C[C@@H]2c3cccc4[nH]cc(c34)C[C@H]21	normalized growth	0.971

Note normalized growth for the compound shown: `CC(=O)OCC1=C(C(=O)O)N2C(=O)[C@@H](NC(=O)Cc3cccs3)[C@H]2SC1` 0.972

Could you please provide reported normalized growth for O=C1C=C2C(=CCOC2O)O1 (stereo not given) ? Thanks! 0.635

###

Run Description: chemical genetic growth profiling, strain panel (AID 1159580);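 also: tested at 20 µM; growth read once vehicle control cultures reached saturation at 30 °C; 1 = growth at the plate median or of vehicle wells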
Test Parameters: S. cerevisiae deletion strains, growth OD, locus YCL016C, strain dcc1, hits give low values
Among all 5,500 compounds or so, about 2,000 (36%) were called active. About 18% were inconclusive and are not listed. The list shows a part of the results. Where a SMILES comes first, the peptide text is derived from it.
Measurement Type: normalized growth

Compound	Reported
NC(=O)NCCCC(N)C(=O)O (stereo unspecified)	1 (inactive)
COC(=O)[C@H](Cc1ccccc1)NC(=O)[C@@H](N)CC(=O)O (H-Asp-Phe-OMe)	1.01 (inactive)
CC[n+]1c(-c2ccccc2)c2cc(N)ccc2c2ccc(N)cc21	0.943 (inactive)

Please report the measured normalized growth for `C[C@@H]([C@H](O)c1ccccc1)N(C)C` 1.01 (inactive)

Provide only the value of recorded normalized growth for CNC(C)C(O)c1ccccc1 (stereo unspecified) 1 (inactive)

Provide normalized growth value for the following compound: C=C1CCC2(OC1)OC1CC3C4CC=C5CC(O)CC(O)C5(C)C4CCC3(C)C1C2C (stereo unspecified) 0.979 (inactive)

###

Run Description: chemical genetic growth profiling, strain panel (AID 1159580);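 also: tested at 20 µM; growth read once vehicle control cultures reached saturation at 30 °C; 1 = growth at the plate median or of vehicle wells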
Test Parameters: S. cerevisiae deletion strains, growth OD, locus YAL026C, strain drs2
The whole screen tested about 5,500 compounds, of which about 2,000 (36%) were called active. Inconclusive results (about 18%) are left out. No stated cut-off is given here; in the data, active means normalized growth mostly below about 0.91 (no sharp cut-off); inconclusive means no clear call, values can overlap the other calls; inactive means mostly above about 0.92. This is one part of the list. Where a SMILES comes first, the peptide text is derived from it.
Pick one: active, inactive

Completed entries (count: 3):
Molecule	Assigned Class
O=c1c(O)c(-c2ccc(O)c(O)c2)oc2cc(O)cc(O)c12	active
N#Cc1nn(-c2c(Cl)cc(C(F)(F)F)cc2Cl)c(N)c1S(=O)C(F)(F)F (configuration not stated)	inactive
COc1cccc2c(C)cc(=O)[nH]c12	inactive

What outcome does the record of this test show for C[C@@H]1O[C@@H](OC[C@H]2OC(Oc3c(-c4ccc(O)c(O)c4)oc4cc(O)cc(O)c4c3=O)[C@H](O)[C@@H](O)[C@@H]2O)[C@H](O)[C@H](O)[C@H]1O (some centres not stated) ? inactive

Dear all, I need the recorded test outcome for `O=c1c(O)c(-c2ccc(O)c(O)c2)oc2c(O[C@@H]3O[C@H](CO)[C@H](O)[C@@H](O)[C@H]3O)c(O)cc(O)c12` , thank you. inactive

Recorded test outcome, item `O=c1cc(-c2ccc(O)cc2)oc2cc(O[C@@H]3O[C@H](CO)[C@@H](O)[C@H](O)[C@H]3O)cc(O)c12` inactive

Per the assay record, what outcome was assigned to O=C(Cc1cccs1)NC1C(=O)N2C(C(=O)[O-])=C(C[n+]3ccccc3)CSC12 (configuration not stated) ? inactive

How did this test come out for `O=c1c(O)c(-c2ccc(O)cc2O)oc2cc(O)cc(O)c12` ? inactive

Called result for `COc1ccc(-c2cc(=O)c3c(O)cc(O[C@@H]4O[C@H](CO[C@H]5O[C@H](C)[C@@H](O)[C@H](O)[C@@H]5O)[C@@H](O)[C@H](O)[C@H]4O)cc3o2)cc1O` inactive

What did this assay record as the result for `Cc1[nH]ccc2c1[nH]c1cc(=O)ccc12` ? inactive

Please indicate how the test categorized `COc1ccc(-c2oc3cc(O[C@H]4O[C@H](CO)[C@@H](O)[C@H](O)[C@H]4O)c(OC)c(O)c3c(=O)c2OC)cc1O` . inactive

I'd appreciate the recorded outcome for C[C@H]1O[C@H](OC2[C@@H](O)[C@@H](O)C(O)[C@H](O)[C@H]2O)[C@@H](N)C[C@@H]1N=C(N)C(=O)O (some centres not stated) from this test. inactive

Identify the outcome logged in this assay for the molecule shown: CC(=O)O[C@]1(C(C)=O)CCC2C3C=C(Cl)C4=CC(=O)[C@@H]5C[C@@H]5[C@]4(C)C3CC[C@@]21C (some centres not stated) inactive

Please indicate how the test categorized CC1O[C@@H](Oc2c(-c3ccc(O)c(O)c3)oc3cc(O)cc(O)c3c2=O)[C@H](O)[C@H](O)[C@H]1O (some centres not stated) . inactive

Entry CC(=O)[C@@]1(O)CCC2C3C[C@H](C)C4=CC(=O)C=CC4(C)[C@@]3(F)[C@@H](O)C[C@@]21C (some centres not stated) : call = ? inactive

Tell me the recorded outcome of this test for CC(C)c1c(O)ccc2c1CCC1C(C)(C)CCC[C@]21C (some centres not stated) . active

Name the outcome recorded for COC(=O)[C@H](Cc1ccccc1)NC(=O)[C@@H](N)CC(=O)O (H-Asp-Phe-OMe) in the assay. inactive
